So I've got a bunch of molecules here, and I need their MIC values.
Tested on: Trichophyton quickeaneum
Experiment: MIC (Minimum Inhibitory Concentration)
Type: cell-based
Details: Trichophyton quickeaneum A 2040; read-out: MIC values
One number for each entry, in µg/mL.

MOLECULE	TARGET	MIC (µg/mL)
[C-]#[N+]C(=C(C)c1ccccc1)S(=O)(=O)c1ccc(C)cc1	Trichophyton quickeaneum	6
[C-]#[N+]C(=C(C)c1cccs1)S(=O)(=O)c1ccc(C)cc1	Trichophyton quickeaneum	6
[C-]#[N+]C(=Cc1ccccc1)S(=O)(=O)c1ccc(C)cc1	Trichophyton quickeaneum	3

The following molecules each have a reported value; give each one's MIC.
1. [C-]#[N+]C(=Cc1ccco1)S(=O)(=O)c1ccc(C)cc1
2. [C-]#[N+]C(C(C)=CC)S(=O)(=O)c1ccc(C)cc1 (centres unmarked) [Example 27b]
3. Clc1ccc(COC(Cn2ccnc2)c2ccc(Cl)cc2Cl)c(Cl)c1 (centres unmarked) [miconazole, reference compound]
4. [C-]#[N+]C(=CCCC)S(=O)(=O)c1ccc(C)cc1

3
1.5
0.1
100

Hi! Can you tell me MIC for each of these molecules?
1. [C-]#[N+]C(=C(C)CC)S(=O)(=O)c1ccc(C)cc1 [Example 27a]
2. [C-]#[N+]C(C1=CCOCC1)S(=O)(=O)c1ccc(C)cc1 (centres unmarked) [Example 14b]
3. [C-]#[N+]C(=CC(C)(C)C)S(=O)(=O)c1ccc(C)cc1
4. C[C@@H]1C/C=C/C=C/C=C/C=C/[C@H](O[C@@H]2O[C@H](C)[C@@H](O)[C@H](N)[C@@H]2O)C[C@@H]2O[C@](O)(C[C@@H](O)C[C@H]3O[C@@H]3/C=C/C(=O)O1)C[C@H](O)[C@H]2C(=O)O [natamycin, reference compound]
5. [C-]#[N+]C(=Cc1ccc(Cl)cc1)S(=O)(=O)c1ccc(C)cc1
6. [C-]#[N+]C(C1=CCSCC1)S(=O)(=O)c1ccc(C)cc1 (centres unmarked) [Example 16b]
7. [C-]#[N+]C(=C(C)c1ccco1)S(=O)(=O)c1ccc(C)cc1
8. [C-]#[N+]C(=C(C)C)S(=O)(=O)c1ccc(C)cc1

0.1
25
3
12.5
1.5
6
0.4
0.8

----------
Test system: Trichophyton rubrum
Assay: MIC (Minimum Inhibitory Concentration)
Type: cell-based
Conditions: read-out: MIC values, Trichophyton rubrum 218-65
Excerpt: In addition they may be used for combatting plant diseases, in particular as fungicides. A list of MIC (Minimum Inhibitory Concentration) values for a number of microorganisms is listed herebelow. […]
Response field label takes 1.0 when MIC is strictly below 6 µg/mL and 0.0 in all other cases.

Known results for compounds:
COMPOUND	TARGET	CATEGORY_LABEL
[C-]#[N+]C(=C1CCOCC1)S(=O)(=O)c1ccc(C)cc1 [Example 14a]	Trichophyton rubrum	1.0
[C-]#[N+]C(=C1CCCCC1)S(=O)(=O)c1ccccc1 [Example 25]	Trichophyton rubrum	1.0

Does the reported MIC of [C-]#[N+]C(C1=CCCCCC1)S(=O)(=O)c1ccc(C)cc1 (stereo not shown) [Example 18b] stay below 6 µg/mL?
0.0

Is the reported MIC for [C-]#[N+]C(=C1C2CC3CC(C2)CC1C3)S(=O)(=O)c1ccc(C)cc1 [Example 2] strictly below 6 µg/mL?
1.0

Does the reported MIC of [C-]#[N+]C(C1=CCCCCCC1)S(=O)(=O)c1ccc(C)cc1 (stereo not shown) [Example 20] stay below 6 µg/mL?
0.0

For this compound, is MIC lower than 6 µg/mL? [C-]#[N+]C(=C1CCCC1)S(=O)(=O)c1ccc(C)cc1 [Example 9]
1.0
